# assay.system: T1, Human FGF19 (human, UniProt O95750 25-216)
# T1 construct: Recombinant soluble protein; also called huFGF19; Fibroblast growth factor 19
# T1 sequence (O95750 25-216 limits assumed): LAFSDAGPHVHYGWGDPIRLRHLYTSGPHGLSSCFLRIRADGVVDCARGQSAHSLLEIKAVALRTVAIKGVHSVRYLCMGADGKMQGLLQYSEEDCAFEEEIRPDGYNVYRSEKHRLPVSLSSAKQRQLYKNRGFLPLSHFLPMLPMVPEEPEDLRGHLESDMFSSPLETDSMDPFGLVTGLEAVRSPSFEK
# assay.comment: SPR (BIAcore 2000), IgG on chip, soluble human FGF19
quantity.kind: Kd (fold faster), against chimeric 1A6 (fold)
Report the figure in fold without appending any unit label.

Below are worked cases with known answers.
Entry hu1A6.S34T (HVR-L1) (antibody, V domains shown) VH: EVQLVESGGGLVQPGGSLRLSCAASGFSLTTYGVHWVRQAPGKGLEWVGVIWPGGGTDYNAAFISRFTISRDNSKNTLYLQMNSLRAEDTAVYYCVRKEYANLYAMDYWGQGTLVTVSS VL: DIQMTQSPSSLSASVGDRVTITCKASQDINSFLTWYQQKPGKAPKLLIYRANRLVDGVPSRFSGSGSGTDFTLTISSLQPEDFATYYCLQYDEFPLTFGQGTKVEIKR , Kd (fold faster), against chimeric 1A6 reported as 1.2

The recorded Kd (fold faster), against chimeric 1A6 for entry chimeric anti-FGF19 antibody 1A6 (antibody, V domains shown, also called chimeric 1A6; ch1A6) VH: QVQLKQSGPGLVQPSQSLSITCTVSGFSLTTYGVHWVRQSPGKGLEWLGVIWPGGGTDYNAAFISRLSITKDNSKSQVFFKMNSLLANDTAIYFCVRKEYANLYAMDYWGQGTLLTVSA VL: DIKMTQSPSSMYASLGERVTIPCKASQDINSFLSWFQQKPGKSPKTLIYRANRLVDGVPSRFSGSGSGQDYSLTISSLEYEDMGIYYCLQYDEFPLTFGAGTKVEIKR equals 1

Now consider the entry below.
Measured Kd (fold faster), against chimeric 1A6, hu1A6.A100bP/M100kS (HVR-H3) (antibody, name in Kabat numbering, V domains shown, also called A100bP/M100cS) VH: EVQLVESGGGLVQPGGSLRLSCAASGFSLTTYGVHWVRQAPGKGLEWVGVIWPGGGTDYNAAFISRFTISRDNSKNTLYLQMNSLRAEDTAVYYCVRKEYANLYPSDYWGQGTLVTVSS VL: DIQMTQSPSSLSASVGDRVTITCKASQDINSFLSWYQQKPGKAPKLLIYRANRLVDGVPSRFSGSGSGTDFTLTISSLQPEDFATYYCLQYDEFPLTFGQGTKVEIKR : 0.5
